The values you see were collected from ChEMBL document CHEMBL5500355.

experiment: Solubility of compound in water by liquid chromatography method; format: physicochemical
Give measured solubility for each item. Keep answers brief.

COc1cccc2c(=O)n(-c3cccnc3)[se]c12 1800 µg/mL

Let us move to another entry and its solubility.
Suppose we examine the compound COc1cccc2c(=O)n(-c3ccccc3)[se]c12 ; what solubility value has been reported?
2.5 µg/mL

###

test: Glutathione peroxidase like activity of compound assessed as fold increase by measuring reduction in NADPH level at 100 uM by microplate reader assay relative to SPI-1005; format: ADME
parameter: fold change (FC)
Numbers only.

Answered cases to consult:
O=c1c2cccc(F)c2[se]n1-c1ccccc1 2.5
O=c1c2ccc(Br)cc2[se]n1-c1ccccc1 0.6
COc1cccc2[se]n(-c3ccccc3)c(=O)c12 1.2
O=c1c2cc(Br)ccc2[se]n1-c1ccccc1 1.1

Fill in fold change (FC) for each of the 7 compounds listed.
1. COc1cccc(-n2[se]c3ccccc3c2=O)c1
2. O=c1c2cccc(Br)c2[se]n1-c1ccccn1
3. COc1cccc2c(=O)n(-c3ccccn3)[se]c12
4. COc1cccc2c(=O)n(-c3ccncc3)[se]c12
5. COc1cccc2c(=O)n(-c3cccnc3)[se]c12
6. O=c1c2cccc(Br)c2[se]n1-c1cccnc1
7. COc1cccc2c(=O)n(-c3ccccc3)[se]c12

1. 1
2. 4.7
3. 3.8
4. 3
5. 3.5
6. 3.5
7. 4.2

Fill in fold change (FC) for each of the 3 compounds listed.
1. COc1ccc2c(=O)n(-c3ccccc3)[se]c2c1
2. COc1ccc(-n2[se]c3ccccc3c2=O)cc1
3. COc1ccc2[se]n(-c3ccccc3)c(=O)c2c1

1. 0.5
2. 1.1
3. 0.8
